Target: recombinant human kinase domain of TYK2 (Homo sapiens (Human))
Sequence (P29597 897-1176): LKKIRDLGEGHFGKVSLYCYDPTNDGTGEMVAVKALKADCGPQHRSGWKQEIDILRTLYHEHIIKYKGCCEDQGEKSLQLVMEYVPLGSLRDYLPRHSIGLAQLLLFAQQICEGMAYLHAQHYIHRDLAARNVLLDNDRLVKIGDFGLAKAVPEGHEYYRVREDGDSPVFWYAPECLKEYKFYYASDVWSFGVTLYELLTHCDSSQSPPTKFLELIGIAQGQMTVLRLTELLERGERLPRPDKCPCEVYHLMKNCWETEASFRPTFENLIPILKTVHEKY
Experiment: JAK Caliper enzyme assay at 1 mM ATP (TYK2);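 note: microfluidic mobility-shift readout of synthetic peptide phosphorylation by TYK2, tuned to 20–30% conversion at room temperature, reaction stopped with EDTA, DMSO-only wells as uninhibited baseline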
Assay type: biochemical
Conditions: 1 mM ATP; read-out: IC50 (nM) TYK2
measuredProperty: IC50 (nM)
Answers are plain numbers, in nM.

In the examples that follow, each entry is paired with its recorded IC50.
molecule	targetUnderTest	IC50 [nM]
CNC(=O)c1ncc(Nc2nccc(N3C[C@H]4CC[C@@H](C3)N4C(=O)[C@@H]3CC3(F)F)n2)cc1Cl	recombinant human kinase domain of TYK2 (Homo sapiens (Human))	22
Cn1cc(Nc2nccc(N3C[C@H]4CC[C@@H](C3)N4c3ncc(C#N)o3)n2)cn1	recombinant human kinase domain of TYK2 (Homo sapiens (Human))	63
CCNC(=O)c1ccc(Nc2nccc(N3CC4CC(C3)N4C(=O)C(C)(F)F)n2)cc1	recombinant human kinase domain of TYK2 (Homo sapiens (Human))	62

Hi team, please reply with IC50 for each item in this list.
1. CNC(=O)c1ncc(Nc2nccc(N3C[C@H]4CC[C@@H](C3)N4C[C@H]3CC3(F)F)n2)cc1C
2. C[C@@H]1[C@@H]2CN(c3nc(Nc4ccc([C@@H](C)CO)nc4)ncc3F)C[C@]12NC(=O)C1CC1 (single isomer, unassigned)
3. CC(C)NC(=O)N1[C@@H]2CC[C@H]1CN(c1ccnc(Nc3cnn(C)c3)n1)C2
4. CC(C)(C#N)c1ccc(Nc2nccc(N3C[C@H]4CC[C@@H](C3)N4C(=O)[C@@H]3CC3(F)F)n2)cn1

1. 22
2. 150
3. 110
4. 25

Entry source: patent US9663526B2
